Hello, the source for this data is patent US20240010680A1, in case you need it.

# measuredOn: hACE2 (Homo sapiens, UniProt Q9BYF1)
# Sequence (Q9BYF1 18-805): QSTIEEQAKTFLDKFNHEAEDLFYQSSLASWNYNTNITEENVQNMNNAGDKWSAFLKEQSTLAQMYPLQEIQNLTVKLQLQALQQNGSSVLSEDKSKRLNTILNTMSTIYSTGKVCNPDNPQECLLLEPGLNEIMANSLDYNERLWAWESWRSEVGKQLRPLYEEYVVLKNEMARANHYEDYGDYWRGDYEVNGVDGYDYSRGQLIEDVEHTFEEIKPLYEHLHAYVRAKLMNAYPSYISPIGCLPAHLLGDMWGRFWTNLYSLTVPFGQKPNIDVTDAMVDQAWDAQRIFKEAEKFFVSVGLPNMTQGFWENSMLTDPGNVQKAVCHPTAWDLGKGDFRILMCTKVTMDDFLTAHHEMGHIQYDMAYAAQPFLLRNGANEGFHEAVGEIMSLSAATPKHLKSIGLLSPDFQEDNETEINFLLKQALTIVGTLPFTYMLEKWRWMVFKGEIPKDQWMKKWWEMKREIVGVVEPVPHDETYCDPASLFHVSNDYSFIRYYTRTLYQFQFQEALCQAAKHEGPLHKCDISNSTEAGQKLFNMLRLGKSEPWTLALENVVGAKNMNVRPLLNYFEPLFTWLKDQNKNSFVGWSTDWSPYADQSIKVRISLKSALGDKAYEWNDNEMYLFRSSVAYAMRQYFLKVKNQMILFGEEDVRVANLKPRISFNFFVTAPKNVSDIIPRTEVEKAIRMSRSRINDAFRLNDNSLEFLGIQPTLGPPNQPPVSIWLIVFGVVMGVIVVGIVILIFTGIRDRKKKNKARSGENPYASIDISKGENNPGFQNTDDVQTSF
# assay: Biacore T200 molecular binding (affinity analysis) of peptides on a CM5-hACE2 chip
# Description: Embodiment 1: Testing a Binding Capacity Between Peptide1 & Peptide2 and Derivatives Thereof and hACE2 Based on a Biacore Molecular Binding System (e.g., GE Biacore T200) Apparatus: GE Biacore T200. […] Specific Steps: • a. […] The NHS, the EDC, the ethanolamine, and the hACE2 (1 mg/mL) are placed on a feeding plate of the GE Biacore T200 according to volumes indicated by the GE Biacore T200 using Eppendorf (EP) tubes in sufficient quantities; • c. […]
Where no end group is shown, it is not given here.
readoutLabel: Kd (µM)

substance	measuredOn	recordedNumber
YKYRYL [Peptide1, YKYRYL]	hACE2 (Homo sapiens, UniProt Q9BYF1)	50.6
YRYKYL [Peptide11, YRYKYL]	hACE2 (Homo sapiens, UniProt Q9BYF1)	60.7
YSYINK [Peptide2, YSYINK]	hACE2 (Homo sapiens, UniProt Q9BYF1)	95
YTYINK [Peptide22, YTYINK]	hACE2 (Homo sapiens, UniProt Q9BYF1)	58.4
